Origin of the recorded values: patent US8569343B2

Measured EC50 accompanies every entry in the list below.
Target: cloned human kappa opioid receptor (Homo sapiens)
Construct: expressed in transfected cells; host or cells: CHO cells
Sequence (P41145 whole entry): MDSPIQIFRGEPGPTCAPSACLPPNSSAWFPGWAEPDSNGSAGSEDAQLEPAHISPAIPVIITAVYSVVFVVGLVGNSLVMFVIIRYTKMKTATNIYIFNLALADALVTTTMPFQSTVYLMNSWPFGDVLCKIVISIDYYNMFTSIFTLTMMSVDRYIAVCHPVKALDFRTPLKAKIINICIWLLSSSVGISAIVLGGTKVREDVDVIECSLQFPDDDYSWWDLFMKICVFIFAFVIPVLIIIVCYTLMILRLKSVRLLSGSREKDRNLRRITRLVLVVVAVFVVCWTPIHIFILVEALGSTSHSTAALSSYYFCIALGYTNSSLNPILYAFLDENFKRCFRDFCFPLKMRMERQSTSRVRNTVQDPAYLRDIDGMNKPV
Assay: cell-based

Molecule | EC50
COc1ccc2c3c1O[C@H]1C(O)CC[C@@]4(O)[C@@H](C2)N(C)CC[C@]314 (stereo partly drawn) [Hydroxycodone, α-6-hydroxycodone, reference compound] | > 500 µM

Kindly review the next molecule as well.
Query :: What value of measured EC50 is listed for COCCOCCOCCOCCO[C@H]1CC[C@@]2(O)[C@H]3Cc4ccc(OC)c5c4[C@@]2(CCN3C)[C@H]1O5 [α-6-mPEG4-O-Hydroxycodone, α-6-mPEG4-O-hydroxycodone] ?
Result :: > 500 µM
